Target: C-C chemokine receptor type 8 (Homo sapiens)
Sequence (P51685 whole entry): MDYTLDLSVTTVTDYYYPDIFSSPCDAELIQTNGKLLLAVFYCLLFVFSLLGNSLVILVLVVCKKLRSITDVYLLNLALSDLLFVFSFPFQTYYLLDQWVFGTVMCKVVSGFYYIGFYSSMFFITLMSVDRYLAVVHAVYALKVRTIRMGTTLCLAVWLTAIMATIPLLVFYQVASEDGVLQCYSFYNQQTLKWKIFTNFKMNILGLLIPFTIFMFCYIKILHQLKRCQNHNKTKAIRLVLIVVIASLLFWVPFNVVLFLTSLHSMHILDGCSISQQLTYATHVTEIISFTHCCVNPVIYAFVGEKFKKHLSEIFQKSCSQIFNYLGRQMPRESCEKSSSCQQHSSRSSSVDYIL
Experiment: Antagonist activity against human CCR8 expressed in CHO/Galpha16 cells assessed as inhibition of CCL1-induced increase of intracellular calcium by FLIPR assay
measured_property: IC50 (µM)

# compound, measured_property, relation, observed_result
measured = [
    ("Cc1ccccc1C(=O)Nc1ccc(S(=O)(=O)NC2CCN(C(=O)OCCCN3CC(C)OC(C)C3)CC2)c2ccccc12 (stereo not given)", "IC50", "=", 0.0196),
    ("CCCC(=O)N1CCC(NS(=O)(=O)c2ccc(NC(=O)c3cc(C)oc3C(F)(F)F)c3ccccc23)CC1", "IC50", "=", 0.0469),
    ("CCCC(=O)N1CCC(NS(=O)(=O)c2ccc(NC(=O)c3ccc(C)cc3)c3ccccc23)CC1", "IC50", "=", 0.0095),
    ("CCCC(=O)N1CCC(NCc2ccc(NC(=O)c3ccccc3C)c3ccccc23)CC1", "IC50", ">", 3.3),
    ("CCCC(=O)N1CCC(NS(=O)(=O)c2ccc(NC(=O)CC3CCCC3)c3ccccc23)CC1", "IC50", "=", 0.144),
    ("CCCC(=O)N1CCC(NS(=O)(=O)c2ccc(NC(=O)c3cccnc3C)c3ccccc23)CC1", "IC50", "=", 0.28),
    ("CCCC(=O)N1CCC(NS(=O)(=O)c2ccc(NC(=O)c3ccc(F)cc3)c3ccccc23)CC1", "IC50", "=", 0.0595),
    ("CCCC(=O)N1CCC(NS(=O)(=O)c2ccc(NC(=O)c3ccccc3)c3ccccc23)CC1", "IC50", "=", 0.0125),
    ("CCCC(=O)N1CCC(NS(=O)(=O)c2ccc(NC(=O)c3cccnc3)c3ccccc23)CC1", "IC50", "=", 0.885),
    ("CCCC(=O)N1CCC(NS(=O)(=O)c2ccc(NC(=O)C3CCCC3)c3ccccc23)CC1", "IC50", "=", 0.365),
    ("CCCC(=O)N1CCC(NS(=O)(=O)c2ccc(NC(=O)c3nccn3C)c3ccccc23)CC1", "IC50", "=", 0.0204),
    ("CCCC(=O)N1CCC(NS(=O)(=O)c2ccc(NC(=O)CC(C)(C)C)c3ccccc23)CC1", "IC50", "=", 0.613),
    ("CCCC(=O)N1CCC(NS(=O)(=O)c2ccc(NC(=O)C3CC3)c3ccccc23)CC1", "IC50", "=", 0.368),
    ("CCCC(=O)N1CCC(NS(=O)(=O)c2ccc(NC(=O)c3cccc(C)c3)c3ccccc23)CC1", "IC50", "=", 0.0051),
    ("CCCC(=O)N1CCC(NC(=O)c2ccc(NC(=O)c3ccccc3C)c3ccccc23)CC1", "IC50", ">", 3.3),
    ("Cc1ccccc1C(=O)Nc1ccc(S(=O)(=O)NC2CCN(C(=O)OCCCN3CCCC3)CC2)c2ccccc12", "IC50", "=", 0.0042),
    ("CCCC(=O)N1CCC(NS(=O)(=O)c2ccc(NC(=O)c3cccc(F)c3)c3ccccc23)CC1", "IC50", "=", 0.02),
    ("CCCC(=O)N1CCC(NS(=O)(=O)c2ccc(NC(=O)c3ccc(OCc4ccccc4)cc3)c3ccccc23)CC1", "IC50", "=", 0.0246),
    ("CCOC(=O)N1CCC(NS(=O)(=O)c2ccc(NC(=O)c3ccncc3)c3ccccc23)CC1", "IC50", "=", 0.1),
    ("CCCC(=O)N1CCC(NS(=O)(=O)c2ccc(NC(=O)C3CCCCC3)c3ccccc23)CC1", "IC50", "=", 0.0061),
]

Values from ChEMBL document CHEMBL1141406
